Values of pIC50 for Polyunsaturated fatty acid lipoxygenase ALOX15 (Homo sapiens), collected from a number of published sources:
Target: Polyunsaturated fatty acid lipoxygenase ALOX15 (Homo sapiens)
Sequence (P16050 whole entry): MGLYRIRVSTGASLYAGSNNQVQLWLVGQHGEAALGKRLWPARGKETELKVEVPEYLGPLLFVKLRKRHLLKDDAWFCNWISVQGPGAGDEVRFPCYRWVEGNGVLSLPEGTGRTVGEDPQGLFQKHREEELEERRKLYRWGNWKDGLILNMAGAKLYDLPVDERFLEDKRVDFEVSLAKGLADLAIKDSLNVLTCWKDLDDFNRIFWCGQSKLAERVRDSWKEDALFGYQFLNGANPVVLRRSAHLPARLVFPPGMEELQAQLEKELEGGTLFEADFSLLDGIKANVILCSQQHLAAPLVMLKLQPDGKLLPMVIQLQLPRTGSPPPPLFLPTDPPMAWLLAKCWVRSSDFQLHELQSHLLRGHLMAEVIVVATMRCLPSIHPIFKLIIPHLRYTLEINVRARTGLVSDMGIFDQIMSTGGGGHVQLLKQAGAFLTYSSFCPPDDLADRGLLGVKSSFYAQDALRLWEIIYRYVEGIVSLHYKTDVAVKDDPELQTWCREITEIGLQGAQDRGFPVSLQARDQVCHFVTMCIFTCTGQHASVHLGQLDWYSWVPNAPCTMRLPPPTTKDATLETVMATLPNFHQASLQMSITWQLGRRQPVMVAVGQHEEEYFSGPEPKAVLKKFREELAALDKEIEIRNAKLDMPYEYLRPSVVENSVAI
pIC50: −log10 of the molar value.

Input: What value of pIC50 has been recorded for this entry: O=C(OCC#CCSc1nnc(-c2cccc3ccccc23)o1)c1cc2ccccc2s1
Output: > 8.00

Input: What value of pIC50 has been recorded for this entry: COc1ccc(Cc2sc(-c3ccc(Cl)cc3)nc2O)cc1
Output: < 5.00

Input: What value of pIC50 has been recorded for this entry: CCOc1ccc(Br)cc1
Output: < 4.00

Input: What value of pIC50 has been recorded for this entry: COc1ccc(-c2cc(-c3ccc(C)cc3)[nH]n2)c(O)c1
Output: < 4.30

Input: What value of pIC50 has been recorded for this entry: Oc1cccc(Br)c1
Output: < 4.00

Input: What value of pIC50 has been recorded for this entry: CCCCCc1cc(C(=O)NCCCC)c(N)s1
Output: 4.21 to 4.30

Input: What value of pIC50 has been recorded for this entry: O=C(OCC#CCSc1nnc(-c2cccc3ccccc23)o1)c1ccc(F)c(F)c1
Output: > 8.00

Input: What value of pIC50 has been recorded for this entry: O=C(OCC#CCSc1nnc(-c2cccc3ccccc23)o1)c1ccc(C(F)(F)F)cc1
Output: > 8.00

Input: What value of pIC50 has been recorded for this entry: O=C(OCC#CCSc1nnc(-c2ccc(Cl)cc2)o1)c1ccc(F)cc1
Output: > 8.00

Input: What value of pIC50 has been recorded for this entry: Cc1ccc(-c2cc(-c3ccc(C)cc3O)[nH]n2)cc1
Output: < 4.30
